Where do these numbers come from? They come from patent US20130224224A1.

- assayedSystem: T1, human CX3CR1 (human, UniProt P49238 1-355)
- T1 construct: overexpressed on CHO, BA/F3 or HEK293T cells; also called huCX3CR1; hCX3CR1
- T1 sequence: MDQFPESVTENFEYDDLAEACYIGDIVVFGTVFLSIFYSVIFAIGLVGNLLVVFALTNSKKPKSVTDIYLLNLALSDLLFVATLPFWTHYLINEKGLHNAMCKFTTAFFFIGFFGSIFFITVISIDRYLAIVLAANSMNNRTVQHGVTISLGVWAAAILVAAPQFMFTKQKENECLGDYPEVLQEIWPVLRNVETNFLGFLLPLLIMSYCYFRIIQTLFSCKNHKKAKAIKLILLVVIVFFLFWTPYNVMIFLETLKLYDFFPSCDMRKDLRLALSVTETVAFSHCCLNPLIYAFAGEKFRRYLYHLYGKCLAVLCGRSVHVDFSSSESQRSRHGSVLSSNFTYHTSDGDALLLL
- experimentSummary: periplasmic extract, A647-fractalkine competition FACS, CHO-huCX3CR1
- Experimental: Periplasmic extracts were screened in a human CX3CR1/human Fractalkine FACS competition assay to assess the blocking capacity of the expressed VHHs. Human CX3CR1 was presented on CHO cells overexpressing CX3CR1. […] After one hour incubation at 4 C, cells were washed three times before read out was performed on a FACS Array (Becton Dickinson). First a gate was set on the intact cells as determined from the scatter profile. […]
valueKind: % block (%)
Provide the reading as a plain figure in %.

Query: What does the data say about its % block? Entry: CX3CR1BIIPMP61G2 (VHH, tested as periplasmic extract; not shown: C-terminal c-myc and His6 tags) VHH: EVQLVKSGGGSVQAGESLRLSCAASGSIFSSNAMAWYRQAPGKQRDLVALINSVGITKYADSVKGRFTISRDNAKNTVYLQMNSLKPEDTAVYYCTSDPRRGWDTRYWGQGTQVTVSS
Result: 82

Query: What does the data say about its % block? Entry: CX3CR1BIIPMP61D1 (VHH, tested as periplasmic extract; not shown: C-terminal c-myc and His6 tags) VHH: EVQLVESGGGSVQAGESLRLSCAASGSIFSSNAMAWYRQAFGKQRDLVALINSVGITKYADSVKGRFTISRDNAKNTVYLQMNSLKPEDTAVYYCTSDPRRGWDTRYWGQGTQVTVSS
Result: 68.4

Query: What does the data say about its % block? Entry: CX3CR1BIIPMP61G4 (VHH, also called 61G04; not shown: C-terminal c-myc and His6 tags) VHH: KVQLVESGGGSVQAGGSLRLSCAASGSIFSSNAMAWYRQAPGKQRDLVAAINSVGITKYADSVKGRFTISRDNAKNTVYLQMMSLKPEDTAVYYCTSDPRRGWDTRYWGQGTQVTVSS
Result: 94.5

Query: What does the data say about its % block? Entry: CX3CR1BIIPMP54A3 (VHH, tested as periplasmic extract; not shown: C-terminal c-myc and His6 tags) VHH: EVQLVESGGGSVQAGESLRLSCAASGSIFSSNAMAWYRQAPGKQRDLVAGINSVGITKYADSVKGRFTISRDNAKNTVYLQMNSLKPEDTAVYYCTSDPRRGWDTRYWGQGTQVTVSS
Result: 90.8

Query: What does the data say about its % block? Entry: CX3CR1BIIPMP54G3 (VHH, also called 54G03; not shown: C-terminal c-myc and His6 tags) VHH: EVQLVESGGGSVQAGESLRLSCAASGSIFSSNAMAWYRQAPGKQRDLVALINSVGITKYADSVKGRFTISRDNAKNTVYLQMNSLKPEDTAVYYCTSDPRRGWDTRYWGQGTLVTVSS
Result: 74.7

Query: What does the data say about its % block? Entry: CX3CR1BIIPMP54D5 (VHH, also called 54D05; CX3CR1BII54D5; not shown: C-terminal c-myc and His6 tags) VHH: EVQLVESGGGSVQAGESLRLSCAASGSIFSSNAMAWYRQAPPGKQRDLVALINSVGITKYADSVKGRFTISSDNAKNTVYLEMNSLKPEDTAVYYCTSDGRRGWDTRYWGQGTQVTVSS
Result: 87.8

Query: What does the data say about its % block? Entry: CX3CR1BIIPMP11H11 (VHH, family 9; also called CX3CR1BII11H11; not shown: C-terminal c-myc and His6 tags) VHH: EVQLVESGGGLVQAGGSLRLSCVASGRTFSSYAMGWFRQAPGKERAFVAGISGSASRKYYADSVKGRFTVSRDNARNTVYLQMNSLKPEDTAVYYCAASNSYPKVQFDYYGQGTQVTVSS
Result: 99

Query: What does the data say about its % block? Entry: CX3CR1BIIPMP61C9 (VHH, tested as periplasmic extract; not shown: C-terminal c-myc and His6 tags) VHH: EVQLVKSGGGSVQAGESLRLSCAASGSIFSSNAMAWYRQALGKQRDLVALIDSAGITKYADSVKGRFTISRDNAKNTVYLQMNRLKPEDTAVYYCASDARRGWNTKYWGQGTLVTVSS
Result: 69.4

Query: What does the data say about its % block? Entry: CX3CR1BIIPMP61A11 (VHH, tested as periplasmic extract; not shown: C-terminal c-myc and His6 tags) VHH: EVQLVESRGGSVQAGESLRLSCAASGSIFSSNAMAWYRQAPGKQRDLVAVINSVGITKYADSVKGRFTISGDNAKNTVYLQMNSLKPEDTAVYYCTSDARRGWDTRYWGQGTQVTVSS
Result: 78
